Assay: Cytotoxicity against HK-2 cells assessed as inhibition of cell growth incubated for 1 hr by MTT assay
Format: toxicity, cell-based
Settings: human
Non-standard residues stand in square brackets, D forms with d. Residues, ends and D or L forms follow the SMILES beside them. Nle(6-COOH) = N[C@@H](CCCCC(=O)O)C(=O)O
recordedMetric: IC50 at 1 h (µM)
The answer is to be given in µM; state only the numeric part.

1. CC(C)C[C@H](NC(=O)[C@H](CC(C)C)NC(=O)[C@H](CCCCN)NC(=O)[C@H](CCCCN)NC(=O)[C@H](CC(C)C)NC(=O)[C@H](CC(C)C)NC(=O)[C@H](CCCCN)NC(=O)[C@H](CCCCN)NC(=O)[C@H](CC(C)C)NC(=O)[C@H](CC(C)C)NC(=O)[C@H](CCCCN)NC(=O)[C@H](CC(C)C)NC(=O)[C@H](CC(C)C)NC(=O)[C@@H](N)CCCCN)C(N)=O (H-KLLKLLKKLLKKLL-NH2); 28.1
2. CC(C)C[C@H](NC(=O)[C@H](CCCCN)NC(=O)[C@H](CCCCN)NC(=O)[C@H](CC(C)C)NC(=O)[C@H](CC(C)C)NC(=O)[C@H](CCCCN)NC(=O)[C@H](CCCCN)NC(=O)[C@H](CC(C)C)NC(=O)[C@H](CC(C)C)NC(=O)[C@H](CCCCN)NC(=O)[C@H](CCCCN)NC(=O)[C@H](CC(C)C)NC(=O)[C@@H](N)CC(C)C)C(=O)N[C@@H](CCCCC(=O)O)C(N)=O (H-LLKKLLKKLLKKL[Nle(6-COOH)]-NH2); 26.4
3. CC(C)C[C@H](NC(=O)[C@H](CC(C)C)NC(=O)[C@H](CCCCN)NC(=O)[C@H](CCCCN)NC(=O)[C@H](CC(C)C)NC(=O)[C@H](CC(C)C)NC(=O)[C@H](CCCCN)NC(=O)[C@H](CCCCN)NC(=O)[C@H](CC(C)C)NC(=O)[C@H](CC(C)C)NC(=O)[C@H](CCCCN)NC(=O)[C@H](CCCCN)NC(=O)[C@H](CC(C)C)NC(=O)[C@@H](N)CC(C)C)C(N)=O (H-LLKKLLKKLLKKLL-NH2); 5.4
4. CC(C)C[C@H](NC(=O)[C@H](CCCCN)NC(=O)[C@H](CCCCN)NC(=O)[C@H](CC(C)C)NC(=O)[C@H](CC(C)C)NC(=O)[C@H](CCCCN)NC(=O)[C@H](CCCCN)NC(=O)[C@H](CC(C)C)NC(=O)[C@H](CC(C)C)NC(=O)[C@H](CCCCN)NC(=O)[C@H](CCCCN)NC(=O)[C@H](CC(C)C)NC(=O)[C@@H](N)CC(C)C)C(=O)N[C@@H](CCC(=O)O)C(N)=O (H-LLKKLLKKLLKKLE-NH2); 59.3

// switching to the query compound
Item CC(C)C[C@H](NC(=O)[C@H](CCCCN)NC(=O)[C@H](CC(C)C)NC(=O)[C@H](CC(C)C)NC(=O)[C@H](CCCCN)NC(=O)[C@H](CCCCN)NC(=O)[C@H](CC(C)C)NC(=O)[C@H](CC(C)C)NC(=O)[C@H](CCCCN)NC(=O)[C@H](CCCCN)NC(=O)[C@H](CC(C)C)NC(=O)[C@H](CC(C)C)NC(=O)[C@H](CCCCN)NC(=O)[C@H](CCCCN)NC(=O)[C@H](CC(C)C)NC(=O)[C@H](CC(C)C)NC(=O)[C@@H](N)CCCCN)C(N)=O (H-KLLKKLLKKLLKKLLKL-NH2) : provide IC50 at 1 h
5.35

Measured values drawn from ChEMBL document CHEMBL5584231 for this set.
